testDescription: Cytotoxicity against human HaCaT cells assessed as cell survival at 1 uM after 48 hrs by MTT assay (reference value: 97.50 +/- 0.71%)
Type: cell-based
measurementSetup: read-out: Survival
Documented viability at 48 h, 1 µM across a set of molecules
// return numeric value only (unit: %, not printed)

Example entries begin here.
smilesData: CCCCCCCCCCCCNC(=O)CC1c2cccc(O)c2C(=O)c2c(O)cccc21
measuredNumber: 14.6
//
smilesData: COc1ccc(CNC(=O)CC2c3cccc(O)c3C(=O)c3c(O)cccc32)cc1OC
measuredNumber: 12.3
//
smilesData: CCCCNC(=O)CC1c2cccc(O)c2C(=O)c2c(O)cccc21
measuredNumber: 80.9

The recorded viability at 48 h, 1 µM for entry COc1ccc(CNC(=O)CC2c3cccc(O)c3C(=O)c3c(O)cccc32)c(OC)c1 equals 135

// viability at 48 h, 1 µM value for CCOC(=O)CC1c2cccc(O)c2C(=O)c2c(O)cccc21 : 49.9
